target: UBE2K; assay: reporter assay of Huesken 2005; details: siRNA; further: test concentration or dose not given here
Oligonucleotides are given in HELM: sugar(base)linkage, 5' to 3'; d 2'-deoxyribose, r ribose, m 2'-O-methylribose, p phosphate. ss, as = sense and antisense strand
For each record, write down the corresponding normalised inhibition (eCFP-eYFP dual reporter).
I only need the number, in %, no unit after it.

Prompt: What does the record list as normalised inhibition (eCFP-eYFP dual reporter) for "RNA1{r(A)p.r(A)p.r(A)p.r(U)p.r(C)p.r(C)p.r(C)p.r(G)p.r(A)p.r(A)p.r(A)p.r(U)p.r(G)p.r(U)p.r(U)p.r(C)p.r(A)p.r(A)p.r(A)p.d(T)p.d(T)}|RNA2{r(U)p.r(U)p.r(U)p.r(G)p.r(A)p.r(A)p.r(C)p.r(A)p.r(U)p.r(U)p.r(U)p.r(C)p.r(G)p.r(G)p.r(G)p.r(A)p.r(U)p.r(U)p.r(U)p.d(T)p.d(G)}$$$RNA1{StrandType:ss}|RNA2{StrandType:as}$" ?
Completion: 73.8

Prompt: Look up normalised inhibition (eCFP-eYFP dual reporter) for this substance: "RNA1{r(G)p.r(U)p.r(A)p.r(C)p.r(A)p.r(A)p.r(A)p.r(C)p.r(A)p.r(A)p.r(A)p.r(A)p.r(U)p.r(C)p.r(C)p.r(C)p.r(G)p.r(A)p.r(A)p.d(T)p.d(T)}|RNA2{r(U)p.r(U)p.r(C)p.r(G)p.r(G)p.r(G)p.r(A)p.r(U)p.r(U)p.r(U)p.r(U)p.r(G)p.r(U)p.r(U)p.r(U)p.r(G)p.r(U)p.r(A)p.r(C)p.d(T)p.d(G)}$$$RNA1{StrandType:ss}|RNA2{StrandType:as}$"
Completion: 73.9

Prompt: What does the record list as normalised inhibition (eCFP-eYFP dual reporter) for "RNA1{r(A)p.r(C)p.r(U)p.r(A)p.r(U)p.r(U)p.r(G)p.r(G)p.r(C)p.r(A)p.r(G)p.r(C)p.r(U)p.r(G)p.r(C)p.r(A)p.r(G)p.r(A)p.r(G)p.d(T)p.d(T)}|RNA2{r(C)p.r(U)p.r(C)p.r(U)p.r(G)p.r(C)p.r(A)p.r(G)p.r(C)p.r(U)p.r(G)p.r(C)p.r(C)p.r(A)p.r(A)p.r(U)p.r(A)p.r(G)p.r(U)p.d(G)p.d(C)}$$$RNA1{StrandType:ss}|RNA2{StrandType:as}$" ?
Completion: 62

Prompt: Any idea what normalised inhibition (eCFP-eYFP dual reporter) was measured for "RNA1{r(A)p.r(G)p.r(G)p.r(A)p.r(G)p.r(A)p.r(A)p.r(A)p.r(U)p.r(A)p.r(G)p.r(C)p.r(A)p.r(G)p.r(G)p.r(A)p.r(C)p.r(C)p.r(U)p.d(T)p.d(T)}|RNA2{r(A)p.r(G)p.r(G)p.r(U)p.r(C)p.r(C)p.r(U)p.r(G)p.r(C)p.r(U)p.r(A)p.r(U)p.r(U)p.r(U)p.r(C)p.r(U)p.r(C)p.r(C)p.r(U)p.d(C)p.d(T)}$$$RNA1{StrandType:ss}|RNA2{StrandType:as}$" ?
Completion: 69.4

Prompt: Quick one: normalised inhibition (eCFP-eYFP dual reporter) of "RNA1{r(G)p.r(A)p.r(U)p.r(G)p.r(C)p.r(U)p.r(G)p.r(U)p.r(A)p.r(G)p.r(U)p.r(A)p.r(G)p.r(C)p.r(A)p.r(A)p.r(A)p.r(U)p.r(C)p.d(T)p.d(T)}|RNA2{r(G)p.r(A)p.r(U)p.r(U)p.r(U)p.r(G)p.r(C)p.r(U)p.r(A)p.r(C)p.r(U)p.r(A)p.r(C)p.r(A)p.r(G)p.r(C)p.r(A)p.r(U)p.r(C)p.d(C)p.d(T)}$$$RNA1{StrandType:ss}|RNA2{StrandType:as}$" ?
Completion: 65.5

Prompt: Any idea what normalised inhibition (eCFP-eYFP dual reporter) was measured for "RNA1{r(G)p.r(C)p.r(A)p.r(G)p.r(C)p.r(U)p.r(G)p.r(C)p.r(A)p.r(A)p.r(U)p.r(G)p.r(A)p.r(C)p.r(U)p.r(C)p.r(U)p.r(C)p.r(C)p.d(T)p.d(T)}|RNA2{r(G)p.r(G)p.r(A)p.r(G)p.r(A)p.r(G)p.r(U)p.r(C)p.r(A)p.r(U)p.r(U)p.r(G)p.r(C)p.r(A)p.r(G)p.r(C)p.r(U)p.r(G)p.r(C)p.d(C)p.d(C)}$$$RNA1{StrandType:ss}|RNA2{StrandType:as}$" ?
Completion: 47.4

Prompt: Value lookup for normalised inhibition (eCFP-eYFP dual reporter); key = "RNA1{r(G)p.r(C)p.r(C)p.r(A)p.r(G)p.r(A)p.r(U)p.r(G)p.r(A)p.r(U)p.r(C)p.r(C)p.r(A)p.r(C)p.r(A)p.r(G)p.r(G)p.r(A)p.r(U)p.d(T)p.d(T)}|RNA2{r(A)p.r(U)p.r(C)p.r(C)p.r(U)p.r(G)p.r(U)p.r(G)p.r(G)p.r(A)p.r(U)p.r(C)p.r(A)p.r(U)p.r(C)p.r(U)p.r(G)p.r(G)p.r(C)p.d(T)p.d(C)}$$$RNA1{StrandType:ss}|RNA2{StrandType:as}$"
Completion: 74.9

Prompt: Request the reported normalised inhibition (eCFP-eYFP dual reporter) associated with "RNA1{r(G)p.r(C)p.r(U)p.r(G)p.r(C)p.r(A)p.r(A)p.r(U)p.r(G)p.r(A)p.r(C)p.r(U)p.r(C)p.r(U)p.r(C)p.r(C)p.r(G)p.r(C)p.r(A)p.d(T)p.d(T)}|RNA2{r(U)p.r(G)p.r(C)p.r(G)p.r(G)p.r(A)p.r(G)p.r(A)p.r(G)p.r(U)p.r(C)p.r(A)p.r(U)p.r(U)p.r(G)p.r(C)p.r(A)p.r(G)p.r(C)p.d(T)p.d(G)}$$$RNA1{StrandType:ss}|RNA2{StrandType:as}$"
Completion: 87.1

Prompt: For the substance shown here, "RNA1{r(C)p.r(A)p.r(G)p.r(G)p.r(A)p.r(U)p.r(G)p.r(C)p.r(U)p.r(G)p.r(U)p.r(A)p.r(G)p.r(U)p.r(A)p.r(G)p.r(C)p.r(A)p.r(A)p.d(T)p.d(T)}|RNA2{r(U)p.r(U)p.r(G)p.r(C)p.r(U)p.r(A)p.r(C)p.r(U)p.r(A)p.r(C)p.r(A)p.r(G)p.r(C)p.r(A)p.r(U)p.r(C)p.r(C)p.r(U)p.r(G)p.d(T)p.d(G)}$$$RNA1{StrandType:ss}|RNA2{StrandType:as}$" , give the reported normalised inhibition (eCFP-eYFP dual reporter).
Completion: 93

Prompt: I'd like to know its normalised inhibition (eCFP-eYFP dual reporter). The substance in question is "RNA1{r(U)p.r(G)p.r(U)p.r(A)p.r(G)p.r(A)p.r(U)p.r(G)p.r(A)p.r(G)p.r(A)p.r(A)p.r(U)p.r(U)p.r(U)p.r(U)p.r(A)p.r(C)p.r(A)p.d(T)p.d(T)}|RNA2{r(U)p.r(G)p.r(U)p.r(A)p.r(A)p.r(A)p.r(A)p.r(U)p.r(U)p.r(C)p.r(U)p.r(C)p.r(A)p.r(U)p.r(C)p.r(U)p.r(A)p.r(C)p.r(A)p.d(A)p.d(G)}$$$RNA1{StrandType:ss}|RNA2{StrandType:as}$"
Completion: 89.5
